Tested on: HCT-15 colon
Experiment: NCI-60 one-dose screen, 48 h
Details: 10 µM unless noted
Compounds without any hit were thinned out: in the full panel of roughly 83,000, 20% have a hit. Active and inactive are the calls of the source. The calls were made as follows: active = growth percent below 10; inactive = the rest.
Tick one outcome: 1 (yes) = active, 0 (no) = inactive

Consider the following illustrative entries.
molecule	assigned class
Cc1cnc(C(=O)NNc2nc3sc4c(c3c(=O)n2C)C(C)CCC4)cn1 (stereo not given)	0 (no)
Fc1ccc2[nH]cc(-c3nonc3-c3c[nH]c4ccc(Br)cc34)c2c1	1 (yes)
COc1ccc(/C=N/NC(=O)CCN2c3ccccc3Sc3ccccc32)cc1	0 (no)
CCOC(=O)/C=C1\S/C(=N\Nc2cc(=O)[nH]c3ccc(Cl)cc23)N(c2ccccc2)C1=O	0 (no)

Input line: Hi, do you know how `C#CCn1cnc2c(Nc3cccc(NC(=O)C=C)c3)ncnc21` came out in this test?
Output line: 0 (no)

Input line: Hi, do you know how COc1cccc(CNc2ncnc3c2ncn3C2OC(CO)C(O)C2O)c1O (stereo not given) came out in this test?
Output line: 1 (yes)

Input line: Hi, do you know how `Cc1noc(C)c1C(=O)OCc1coc2ccccc2c1=O` came out in this test?
Output line: 0 (no)

Input line: Hi, do you know how `Cn1ccnc1C(=O)C(=O)Nc1ccc(CC(=O)Nc2ccccc2)cc1` came out in this test?
Output line: 0 (no)

Input line: Hi, do you know how `Cc1ccccc1Cn1cnc2ccc(-c3cc(NC(=O)c4ccc(NC5CCN(C)CC5)cc4)n[nH]3)cc21` came out in this test?
Output line: 0 (no)

Input line: Hi, do you know how `Cc1ccc(-c2csc(NC(=O)CN3CCN(c4cc5c(cc4F)c(=O)c(C(=O)O)cn5C4CC4)CC3)n2)cc1` came out in this test?
Output line: 0 (no)

---

Test system: RXF 393 renal
Experiment: NCI-60 one-dose screen, 48 h (100 = growth as untreated, 0 = no growth, -100 = all killed)
Details: 10 µM unless noted
Compounds without any hit were thinned out: in the full panel of roughly 83,000, 20% have a hit.
Cut-off 50% on growth: below means YES, at or above means NO.

compound	assigned class
C[C@@H]1CCC[C@H]1CC(N)C(=O)O (stereo not given in full)	NO
CC1(C)CC2=C3C=C[C@@H]4[C@@]5(C)CCC(=O)C(C)(C)[C@@H]5CC[C@@]4(C)[C@]3(C)CC[C@@]2(C(=O)O)CC1=O	NO
COc1ccc2c3c([nH]c2c1)C(=O)c1nc(C)ccc1C3=O	NO
COC(=O)c1c2c(c[n+]([O-])c1C)C(=O)C(NCc1ccccc1)=CC2=O	YES
N#Cc1c(-c2ccc(Cl)cc2)nc(SCC(=O)NC2=NN=C(c3ccccc3)CS2)[nH]c1=O	NO

Input line: Find out if reported growth for CC(C)N1CN2C(=S)NC3C2N(C1)C(=S)N3C (stereo not given) is less than 50%
Output line: NO

Input line: Find out if reported growth for `CC(=O)c1cc(O)c2ccccc2c1O` is less than 50%
Output line: NO

Input line: Find out if reported growth for `O=C(O)c1ccc(-n2cc(/C=N/Nc3ccc(F)cc3)c(-c3cc4ccccc4oc3=O)n2)cc1` is less than 50%
Output line: NO

Input line: Find out if reported growth for `NC(=O)c1c(NC(=O)c2ccccc2)sc2c1CCC(=O)C2` is less than 50%
Output line: YES

Input line: Find out if reported growth for `COc1cc(/C=C\c2cc(/C=C\c3ccc(O)c(OC)c3)n(C(=O)COc3ccc(Cl)cc3Cl)n2)ccc1O` is less than 50%
Output line: YES

Input line: Find out if reported growth for `CCN(CC)CCNC(=O)c1cn2ncnc(Oc3ccc(NC(=O)Nc4ccc(Cl)c(C(F)(F)F)c4)c(F)c3)c2c1C` is less than 50%
Output line: YES

Input line: Find out if reported growth for CCOC(=O)CNP(=O)(OC[C@@H](Cc1ccccc1)NC(=O)c1cc2ccccc2s1)Oc1ccccc1 (stereo not given in full) is less than 50%
Output line: NO

---

Tested on: RPMI-8226 leukemia
Assay: NCI-60 one-dose screen, 48 h
Settings: 10 µM unless noted
Compounds without any hit were thinned out: in the full panel of roughly 83,000, 20% have a hit. Calls of active or inactive are those of the source. Rule for the calls: active = growth percent below 10; inactive = the rest.
Tick one outcome: active, inactive

Consider the following illustrative entries.
molecule	assigned class
CC(C)NC1CCC(Nc2ccnc3cc(Cl)ccc23)CC1 (stereo not given)	inactive
CCOC(=O)c1c(NC(=O)c2ccc(C(C)C)cc2)sc2c(CN(C)C)c(O)ccc12	active

Input line: Hi, do you know how `O=C1NCCC12CCN(c1c(Cl)cncc1-c1ccc(O)cc1)CC2` came out in this test?
Output line: inactive

Input line: Hi, do you know how `O=[N+]([O-])c1ccc(-c2nc(N3CCOCC3)c3c4c(sc3n2)CCCC4)cc1` came out in this test?
Output line: inactive

Input line: Hi, do you know how `COc1cc(CNC(=O)CCCC/C=C/C(C)C)ccc1OCc1nnc(Nc2ccc([N+](=O)[O-])cc2)o1` came out in this test?
Output line: inactive

---

Tested on: MOLT-4 leukemia
Test: NCI-60 one-dose screen, 48 h
Conditions: 10 µM unless noted
This is part of a sample that, as a whole, favours compounds with a hit. Of some 83,000 tested, about 20% had one in any assay. Calls of active or inactive are those of the source. The calls were made as follows: active = growth percent below 10; inactive = the rest.
Tick one outcome: active, inactive

Consider the following illustrative entries.
compound	assigned class
Fc1cccc(CNc2c3ccccc3nc3ccccc23)c1F	inactive
CCN(CC)CCOc1ccc(C(=C(C)c2ccc(Cl)cc2)c2ccc(OCCN(CC)CC)cc2)cc1	active
Cc1ccc(C(C(N)=O)C(C(N)=O)c2ccccc2)cc1 (stereo unspecified)	inactive

Input line: Hi, do you know how `N#Cc1cnc(NCCc2ccncc2)nc1-n1cnc2ccccc21` came out in this test?
Output line: inactive

Input line: Hi, do you know how `C/C(=N/O)c1ccc(F)cc1` came out in this test?
Output line: inactive

Input line: Hi, do you know how `CC(=O)OCc1nc(C#N)c(N(C)C)o1` came out in this test?
Output line: inactive

Input line: Hi, do you know how `CS(=O)(=O)C1=CN(CCO)C(=O)N2CCCN=C12` came out in this test?
Output line: inactive

Input line: Hi, do you know how `Cc1nnc(NC(=O)c2nc(S(=O)(=O)Cc3ccc(F)cc3)ncc2Cl)s1` came out in this test?
Output line: inactive

Input line: Hi, do you know how `Cc1ccc(-c2csc(NC(=O)CN3CCN(c4cc5c(cc4F)c(=O)c(C(=O)O)cn5C4CC4)CC3)n2)cc1` came out in this test?
Output line: active

Input line: Hi, do you know how `COc1ccc(/C=C2\COc3ccc(O)cc3C2=O)c(OC)c1OC` came out in this test?
Output line: inactive

Input line: Hi, do you know how `Cn1c(-c2ccc(Br)cc2)c(O)c(=O)c2c(F)cccc21` came out in this test?
Output line: inactive

Input line: Hi, do you know how `COCCNC(=O)c1ccc(-c2nc3ccc4[nH]ncc4c3c3c2CCCC3)cc1` came out in this test?
Output line: inactive

Input line: Hi, do you know how CCCCCCC1(C)NCCO1 (stereo unspecified) came out in this test?
Output line: inactive

Input line: Hi, do you know how `CC(C)(C)n1cc(-c2ccnc(NCCCNS(=O)(=O)c3ccc(F)cc3)c2)c(-c2cccc(F)c2)n1` came out in this test?
Output line: inactive

Input line: Hi, do you know how `CCOC(=O)c1cn2ncnc(Oc3ccc(NC(=O)NC4CCCCC4)c(Cl)c3)c2c1C` came out in this test?
Output line: inactive

Input line: Hi, do you know how `COc1ccc2c(O)c(/C=C3\N=Nc4ccccc43)oc2c1C[C@@H]1CCNC[C@H]1F` came out in this test?
Output line: inactive

Input line: Hi, do you know how `CC(C)CCNC(=O)Cn1cccc(NC(=O)OCc2ccccc2)c1=O` came out in this test?
Output line: inactive

Input line: Hi, do you know how `CCN(c1ccc(Cl)cc1)c1nc(-c2ccc([N+](=O)[O-])cc2)cs1` came out in this test?
Output line: inactive

Input line: Hi, do you know how `CCOC(=O)c1c(NC(=O)c2ccc(C(C)C)cc2)sc2c(CN(C)C)c(O)ccc12` came out in this test?
Output line: active

Input line: Hi, do you know how `CC(C)c1ccc(COCc2cc(CN3CCCC3)c(O)c3ncccc23)cc1` came out in this test?
Output line: active

Input line: Hi, do you know how `CCSc1nc(NC)c2cc(-c3ccc(C(F)(F)F)cc3)ccc2n1` came out in this test?
Output line: inactive

Input line: Hi, do you know how `Cc1ccc2c3c(c(=O)[nH]c2c1)C1(C(C#N)=C(N)O3)c2cc(Br)ccc2-c2ccc(Br)cc21` came out in this test?
Output line: inactive

Input line: Hi, do you know how `COc1ccc2nc(NC(=O)CSc3nnc4n3S(=O)(=O)c3ccccc3N4C)sc2c1` came out in this test?
Output line: inactive
